- Tested on: Daudi (Burkitt's Lymphoma);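 also: after 72 h of two-drug dosing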
- method-description: Bliss excess, mean over the matrix (fraction); higher = more synergy
observation-type: Bliss excess
Kindly provide the number alone.

Quick note, Bliss excess for CN(C)CCCOc1ccc(-c2ccc3ncc4c(c3c2)n(C2CCOCC2)c(=O)n4C)cn1 [AZD0156] + CCN(CCO)CCCOc1ccc2c(Nc3cc(CC(=O)Nc4cccc(F)c4)[nH]n3)ncnc2c1 [AZD2811] (first compound max 1 µM, 7x7, partner max 1 µM) landed at 0.107

COc1nnc2ccc(N3CCC(c4ccc(OCCN5CCN(C)C(=O)[C@H]5C)cc4)CC3)nn12 [AZD5153] + C[C@@H]1COCCN1C2=NC(=NC(=C2)C3(CC3)[S@](=N)(=O)C)C4=C5C=CNC5=NC=C4 [AZD6738] (first compound max 1 µM, 7x7, partner max 10 µM) yielded Bliss excess of 0.0365

The value of Bliss excess measured for the compound CN(CCO)CC[C@H](CSc1ccccc1)Nc1ccc(S(=O)(=O)NC(=O)c2ccc(N3CCC([C@@H](O)c4ccccc4-c4ccc(Cl)cc4)CC3)cc2)cc1S(=O)(=O)C(F)(F)F [AZD4320] + C=CCn1c(=O)c2cnc(Nc3ccc(N4CCN(C)CC4)cc3)nc2n1-c1cccc(C(C)(C)O)n1 [AZD1775] (first compound max 1 µM, partner max 1 µM) turned out to be -0.0249
